SYSTEM TESTED: D-2 receptor (Rattus norvegicus, UniProt P61169)
Construct: 90 µL of the striatal membrane preparation; from tissue; host or cells: rat striatum (membrane preparation)
Sequence (P61169 whole entry): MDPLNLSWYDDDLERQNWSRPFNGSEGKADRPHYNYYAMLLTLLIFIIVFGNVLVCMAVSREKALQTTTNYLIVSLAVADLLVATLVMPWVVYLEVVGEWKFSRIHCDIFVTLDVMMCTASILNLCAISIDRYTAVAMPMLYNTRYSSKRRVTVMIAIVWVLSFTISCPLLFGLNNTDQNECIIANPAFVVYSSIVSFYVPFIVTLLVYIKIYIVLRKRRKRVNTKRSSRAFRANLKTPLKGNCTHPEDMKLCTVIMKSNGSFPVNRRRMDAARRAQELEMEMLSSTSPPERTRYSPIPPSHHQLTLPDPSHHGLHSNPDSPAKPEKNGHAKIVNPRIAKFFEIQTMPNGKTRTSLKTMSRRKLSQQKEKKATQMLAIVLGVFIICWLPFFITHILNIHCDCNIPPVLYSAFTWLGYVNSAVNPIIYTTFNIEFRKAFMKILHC
ASSAY OVERVIEW: Saturation binding of [125I](S)-II to rat striatal membranes (Scatchard analysis, time course)
RUN PARAMETERS: Scatchard analysis of the saturation isotherm; single set of binding sites; rat striatal membranes
MEASURED PROPERTY: Kd (nM)

>  <ENTRY SMILES>
CCN1CCC[C@H]1CNC(=O)c1cc([125I])ccc1OC

>  <DATA VALUE>
1

$$$$
